Reported inhibition by item:
- tested_target: Signal transducer and activator of transcription 1-alpha/beta (Homo sapiens) (UniProt P42224)
- Sequence (P42224 whole entry): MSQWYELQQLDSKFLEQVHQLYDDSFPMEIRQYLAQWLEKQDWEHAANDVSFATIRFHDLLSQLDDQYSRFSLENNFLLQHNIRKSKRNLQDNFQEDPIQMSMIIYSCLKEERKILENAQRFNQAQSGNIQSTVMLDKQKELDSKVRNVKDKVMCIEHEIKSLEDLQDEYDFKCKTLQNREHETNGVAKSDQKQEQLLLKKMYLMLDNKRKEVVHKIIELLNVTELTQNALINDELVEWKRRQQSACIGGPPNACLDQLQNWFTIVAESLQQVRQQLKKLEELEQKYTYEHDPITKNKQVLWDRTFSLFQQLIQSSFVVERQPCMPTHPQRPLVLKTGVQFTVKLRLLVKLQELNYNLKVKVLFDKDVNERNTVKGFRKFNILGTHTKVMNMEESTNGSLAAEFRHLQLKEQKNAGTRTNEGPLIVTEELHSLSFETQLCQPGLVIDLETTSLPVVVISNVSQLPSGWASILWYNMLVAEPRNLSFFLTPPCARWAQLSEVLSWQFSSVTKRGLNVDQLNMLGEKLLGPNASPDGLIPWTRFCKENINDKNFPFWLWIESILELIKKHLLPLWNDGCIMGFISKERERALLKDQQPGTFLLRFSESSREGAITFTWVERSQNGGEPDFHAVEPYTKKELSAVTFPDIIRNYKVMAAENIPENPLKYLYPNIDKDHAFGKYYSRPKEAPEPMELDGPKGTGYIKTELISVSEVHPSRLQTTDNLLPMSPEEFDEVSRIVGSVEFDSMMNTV
- assay_text: Inhibition of STAT1 (unknown origin) expressed in IFN-gamma induced human HeLa cells at 50 uM incubated for 1 hr by luciferase reporter gene assay
- Assay type: cell-based
The figure you give is taken to be in %; do not add the unit.

Use the examples below as a reference point.
1) COc1cc(CN(CC(=O)O)Cc2cc(Cl)c(OCc3ccc(C)cc3)c(OC)c2)cc(Cl)c1OCc1ccc(C)cc1	46
2) COc1cc(CNc2nn[nH]n2)cc(Cl)c1OCc1ccc(C(=O)O)cc1	12.9
3) COc1cc(CNc2nn[nH]n2)cc([N+](=O)[O-])c1OCc1ccc([N+](=O)[O-])cc1	6.4

Return value of inhibition for input C[C@@H]1CC(=O)c2c(ccc3c2C(=O)c2cccc(O)c2C3=O)C1 , no commentary.
13.1

Return value of inhibition for input COc1cc(CN2C(=O)c3ccccc3C2=O)cc(Cl)c1OCc1ccc([N+](=O)[O-])cc1 , no commentary.
44.5

Return value of inhibition for input CCCCCCCCCOc1cc(COc2c(Cl)cc(CNc3nn[nH]n3)cc2OC)ccc1[N+](=O)[O-] , no commentary.
72.9

Return value of inhibition for input COC(=O)c1cccc(COc2c(Cl)cc(CNc3nn[nH]n3)cc2OC)c1 , no commentary.
0

Return value of inhibition for input COc1cc(CNc2nn[nH]n2)cc(Cl)c1OCc1ccc(SC)cc1 , no commentary.
9.7

Return value of inhibition for input COc1cc(CNc2nn[nH]n2)cc(Cl)c1OCc1ccc(OC(F)(F)F)cc1 , no commentary.
11.7

Return value of inhibition for input COc1cc(CNc2nn[nH]n2)cc(I)c1OCc1ccc(C)cc1 , no commentary.
16.5

Return value of inhibition for input COc1cc(NC#N)cc(Cl)c1OCc1ccc(C)cc1 , no commentary.
10.8

Return value of inhibition for input CCCOc1cc(COc2c(Cl)cc(CNc3nn[nH]n3)cc2OC)ccc1[N+](=O)[O-] , no commentary.
2.8

Return value of inhibition for input COc1cc(CC(C(=O)O)C(=O)O)cc(Cl)c1OCc1ccc(C)cc1 , no commentary.
24.5

Return value of inhibition for input COc1cc(CNc2nn[nH]n2)cc(Cl)c1OCc1ccc([N+](=O)[O-])cc1 , no commentary.
15.7

Return value of inhibition for input COc1cc(CC(C(=O)O)c2nn[nH]n2)cc(Cl)c1OCc1ccc(C)cc1 (stereo unspecified) , no commentary.
12.9

Return value of inhibition for input COc1cc(CNc2nn[nH]n2)cc(Cl)c1OCc1cccc(C(N)=O)c1 , no commentary.
15

Return value of inhibition for input CCc1cc2c(cc1COc1c(Cl)cc(CNc3nn[nH]n3)cc1OC)C(C)(C)CCC2(C)C , no commentary.
72.7
